Assay: Single dose pharmacokinetics (PK) study in female BALB/c mice
Assay type: in vivo, mouse
Conditions: female, BALB/c, mouse, plasma, po, 30 mg/kg, po, female BALB/c mice; read-out: Cmax
parameter.measured: Cmax (ng/mL)
Supply the numeric figure in ng/mL, leaving out any unit text.

compound	Cmax (ng/mL)
CCn1c(-c2cc(N3CCN(C)CC3)cnc2[C@H](C)OC)c2c3cc(ccc31)-c1csc(n1)C[C@H](NC(=O)[C@H]1[C@H](C)[C@@H]1C)C(=O)N1CCC[C@H](N1)C(=O)OCC(C)(C)C2 [Example A252, reference compound]	2440

Continue with the next compound.
Asked: Quick one: Cmax of CCn1c(-c2cc(N3CCN(C)CC3)cnc2[C@H](C)OC)c2c3cc(ccc31)-c1csc(n1)C[C@H](NC(=O)[C@H]1C[C@@H]1C)C(=O)N1CCC[C@H](N1)C(=O)OCC(C)(C)O2 [Example A122, reference compound] ?
Given back: 2530

###

System: SW620 cells (KRAS G12V)
Assay: Cell viability assay (Cell Counting Kit-8, 3-day)
Assay type: cell-based, human
Conditions: Homo sapiens, SW-620; SW620, 72 hrs incubation
Each entry falls into one class according to its IC50; the ranges are low = under 0.6 nM, medium = from 0.6 nM up to 1 nM, high = 1 nM and over

compound	measurement.target	label
CO[C@@H](C)c1ncc(N2CCOCC2)cc1-c1c2c3cc(cc4c3n1CCC4)-c1csc(n1)C[C@H](NC(=O)[C@H]1C[C@@H]1c1ccccc1)C(=O)N1CCC[C@H](N1)C(=O)OCC(C)(C)C2 (atropisomer, axis not shown; (M)) [Example 46]	SW620 cells (KRAS G12V)	high
CO[C@@H](C)c1ncc(N2CCOCC2)cc1-c1c2c3cc(cc4c3n1CCO4)-c1csc(n1)C[C@H](NC(=O)[C@H]1C[C@@H]1c1ccccc1)C(=O)N1CCC[C@H](N1)C(=O)OCC(C)(C)C2 (atropisomer, axis not shown; (M)) [Example 43]	SW620 cells (KRAS G12V)	medium
CO[C@@H](C)c1ncc(N2CCN(C)CC2)cc1-c1c2c3cc(cc4c3n1CCC4)-c1csc(n1)C[C@H](NC(=O)[C@@H]1C[C@H]1c1ccccc1F)C(=O)N1CCC[C@H](N1)C(=O)OCC(C)(C)C2 [Example 28]	SW620 cells (KRAS G12V)	high
CO[C@@H](C)c1ncc(N2CCN(C)CC2)cc1-c1c2c3cc(cc4c3n1CCO4)-c1csc(n1)C[C@H](NC(=O)[C@H]1C[C@@H]1c1ccccc1)C(=O)N1CCC[C@H](N1)C(=O)OCC(C)(C)C2 (atropisomer, axis not shown; (M)) [Example 51]	SW620 cells (KRAS G12V)	high
CO[C@@H](C)c1ncc(N2CCOCC2)cc1-c1c2c3cc(cc4c3n1CCC4)-c1csc(n1)C[C@H](NC(=O)[C@H]1C[C@@H]1c1cncnc1)C(=O)N1CCC[C@H](N1)C(=O)OCC(C)(C)C2 (atropisomer, axis not shown; (M)) [Example 94]	SW620 cells (KRAS G12V)	low

Asked: For CO[C@@H](C)c1ncc(N2CCN(C)CC2)cc1-c1c2c3cc(cc4c3n1CC(C)(C)C4)-c1csc(n1)C[C@H](NC(=O)[C@H]1[C@H](C)[C@@H]1C)C(=O)N1CCC[C@H](N1)C(=O)OCC(C)(C)C2 (atropisomer, axis not shown; (M)) [Example 69] , which IC50 bin applies?
Given back: high

Asked: For CO[C@@H](C)c1ncc(N2CCN(CC(F)(F)F)CC2)cc1-c1c2c3cc(cc4c3n1CCO4)-c1csc(n1)C[C@H](NC(=O)[C@H]1C[C@@H]1C)C(=O)N1CCC[C@H](N1)C(=O)OCC(C)(C)C2 (atropisomer, axis not shown; (M)) [Example 5] , which IC50 bin applies?
Given back: high

Asked: For CO[C@@H](C)c1ncc(N2CCN(CCOC3CCOC3)CC2)cc1-c1c2c3cc(cc4c3n1CCC4)-c1csc(n1)C[C@H](NC(=O)[C@H]1[C@H](C)[C@@H]1C)C(=O)N1CCC[C@H](N1)C(=O)OCC(C)(C)C2 (stereo partly drawn) [Example 122] , which IC50 bin applies?
Given back: low

Asked: For CO[C@@H](C)c1ncc(N2CCN(C)CC2)cc1-c1c2c3cc(cc4c3n1CCC4)-c1csc(n1)C[C@H](NC(=O)[C@@H]1C[C@H]1c1cscn1)C(=O)N1CCC[C@H](N1)C(=O)OCC(C)(C)C2 (atropisomer, axis not shown; (M)) [Example 114] , which IC50 bin applies?
Given back: high

Asked: For CO[C@@H](C)c1ncc(N2CCOCC2)cc1-c1c2c3cc(cc4c3n1CCO4)-c1csc(n1)C[C@H](NC(=O)[C@H]1C[C@@H]1c1cncnc1)C(=O)N1CCC[C@H](N1)C(=O)OCC(C)(C)C2 (atropisomer, axis not shown; (M)) [Example 88] , which IC50 bin applies?
Given back: low

Asked: For CO[C@@H](C)c1ncc(N2CCN(C)CC2)cc1-c1c2c3cc(cc4c3n1CCC4)-c1csc(n1)C[C@H](NC(=O)[C@H]1C[C@@H]1c1ccccc1F)C(=O)N1CCC[C@H](N1)C(=O)OCC(C)(C)C2 [Example 29] , which IC50 bin applies?
Given back: medium

Asked: For CO[C@@H](C)c1ncc(N2CCN(CCN3CCCC3=O)CC2)cc1-c1c2c3cc(cc4c3n1CCC4)-c1csc(n1)C[C@H](NC(=O)[C@H]1[C@H](C)[C@@H]1C)C(=O)N1CCC[C@H](N1)C(=O)OCC(C)(C)C2 (atropisomer, axis not shown; (M)) [Example 121] , which IC50 bin applies?
Given back: low
